System: NCI-H322M lung
Experiment: NCI-60 one-dose screen, 48 h (100 = growth as untreated, 0 = no growth, -100 = all killed)
Details: 10 µM unless noted
This is part of a sample that, as a whole, favours compounds with a hit. Of some 83,000 tested, about 20% had one in any assay.
True means recorded growth is 80% or above; False means it is below 80%.

INSERT INTO assay_data (input_smiles, classification) VALUES
  ('COC(=O)N[C@H]1CCc2cc(OC)c(OC)c(OC)c2-c2ccc(SC)c(=O)cc21', 'False'),
  ('COc1cc(NCCCN(CC(C)C)CC(C)C)c2ncccc2c1', 'True');

For the next question, use this compound.
Does the reported growth for N#Cc1c(Nc2ccccc2)nn2cc(-c3nc4ccccc4s3)c(N)nc12 fall at or above the 80% mark?
True
